# test.target: NDM-1 (Klebsiella pneumoniae, UniProt C7C422)
# Sequence (C7C422 whole entry, looked up, species assumed): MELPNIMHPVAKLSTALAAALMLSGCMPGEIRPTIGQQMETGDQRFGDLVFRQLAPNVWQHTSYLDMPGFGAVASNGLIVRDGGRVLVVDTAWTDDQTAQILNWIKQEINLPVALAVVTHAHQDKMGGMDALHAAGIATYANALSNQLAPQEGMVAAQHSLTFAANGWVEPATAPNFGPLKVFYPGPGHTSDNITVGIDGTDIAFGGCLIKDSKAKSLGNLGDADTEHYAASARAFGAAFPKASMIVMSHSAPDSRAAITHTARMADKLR
# assay.overview: biochemical
# Type: biochemical
# test.conditions: fluorescence assay with CCF2-FA substrate; read-out: NDM-1 IC50
quantity.kind: IC50

A selection of reference data follows.
compound: NCCN[C@H]1CC[C@@H](c2ccc(C(F)(F)F)c(S(N)(=O)=O)c2-c2nnn[nH]2)CC1 [Example 828]
quantity.kind: IC50
result: 8.29 nM
--
compound: NC1CCCC12CCN(c1ccc(C(F)(F)F)c(S(N)(=O)=O)c1-c1nnn[nH]1)CC2 (stereo not shown) [Example 761]
quantity.kind: IC50
result: 46 nM

**Query** Which IC50 value is on record for Cn1nccc1-c1cccc(S(N)(=O)=O)c1-c1nn[nH]n1 [Example 49] ?
**Result** 21.6 nM

**Query** Further, for Nc1ccc2cc(-c3ccc(C(F)(F)F)c(S(N)(=O)=O)c3-c3nnn[nH]3)ccc2n1 [Example 745] ?
**Result** 1.05 nM

**Query** Further, for CNS(=O)(=O)c1ccc(-c2cccc(S(N)(=O)=O)c2-c2nn[nH]n2)cc1 [Example 57] ?
**Result** 4.19 nM

**Query** Further, for NS(=O)(=O)c1cccc(-c2ccc(S(=O)(=O)NC3CC3)cc2)c1-c1nn[nH]n1 [Example 60] ?
**Result** 3.17 nM

**Query** Further, for NS(=O)(=O)c1cccc(-c2csc(CN3CCOCC3)c2)c1-c1nn[nH]n1 [Example 103] ?
**Result** 49.4 nM

**Query** Further, for NS(=O)(=O)c1nccc(-c2ccc(CO)cc2)c1-c1nnn[nH]1 [Example 181] ?
**Result** 27.9 nM

**Query** Further, for NS(=O)(=O)c1c(C(F)(F)F)ccc(N2CC[C@H]3NCCO[C@@H]3C2)c1-c1nnn[nH]1 [Example 773] ?
**Result** 31.8 nM

**Query** Further, for NS(=O)(=O)c1cccc(C2CCn3cncc3C2)c1-c1nn[nH]n1 (stereo not shown) [Example 178] ?
**Result** 28.4 nM

**Query** Further, for NS(=O)(=O)c1nccc(NCc2ccccc2)c1-c1nnn[nH]1 [Example 235] ?
**Result** 142 nM

**Query** Further, for N=C(N)NC1CCN(c2ccc(C(F)(F)F)c(S(N)(=O)=O)c2-c2nnn[nH]2)CC1 [Example 824] ?
**Result** 53.1 nM

**Query** Further, for NS(=O)(=O)c1c(C(F)(F)F)ccc([C@H]2CC[C@H](N)CC2)c1-c1nnn[nH]1 [Example 820] ?
**Result** 13.5 nM

**Query** Further, for N#Cc1ccc2[nH]c(-c3cccc(S(N)(=O)=O)c3-c3nn[nH]n3)cc2c1 [Example 99] ?
**Result** 6.98 nM

**Query** Further, for NC1CCCC(N2CCC(c3ccc(-c4ccc(C(F)(F)F)c(S(N)(=O)=O)c4-c4nnn[nH]4)cc3)CC2)C1 (stereo not shown) [Example 798] ?
**Result** 6.05 nM

**Query** Further, for CN1CCN(c2ncc(-c3cccc(S(N)(=O)=O)c3-c3nnn[nH]3)cn2)CC1 [Example 128] ?
**Result** 7.95 nM

**Query** Further, for N#CC1(c2ccc(-c3cccc(S(N)(=O)=O)c3-c3nnn[nH]3)cc2)CCOCC1 [Example 25] ?
**Result** < 0.637 nM

**Query** Further, for NS(=O)(=O)c1cncc(-c2ccc(CO)cc2)c1-c1nnn[nH]1 [Example 189] ?
**Result** 23.2 nM

**Query** Further, for NS(=O)(=O)c1cccc(-c2cccc(F)n2)c1-c1nn[nH]n1 [Example 36] ?
**Result** 38.7 nM

**Query** Further, for Cc1ccc(Oc2cccc(S(N)(=O)=O)c2-c2nn[nH]n2)cc1 [Example 179] ?
**Result** 10.8 nM

**Query** Further, for CN(C)S(=O)(=O)c1ccc(-c2cccc(S(N)(=O)=O)c2-c2nn[nH]n2)cc1 [Example 59] ?
**Result** 4.38 nM

**Query** Further, for Cn1cncc1-c1cccc(S(N)(=O)=O)c1-c1nn[nH]n1 [Example 43] ?
**Result** 310 nM

**Query** Further, for NS(=O)(=O)c1c(C(F)(F)F)ccc(N2CCCC(CCCO)C2)c1-c1nnn[nH]1 (stereo not shown) [Example 769] ?
**Result** 7.48 nM

**Query** Further, for NS(=O)(=O)c1cccc(-c2cccs2)c1-c1nn[nH]n1 [Example 20] ?
**Result** 20.4 nM

**Query** Further, for COc1ncc(-c2cccc(S(N)(=O)=O)c2-c2nn[nH]n2)cn1 [Example 91] ?
**Result** 27.5 nM

====

# test.target: IMP-1 (Serratia marcescens, UniProt P52699)
# Sequence (P52699 whole entry, looked up): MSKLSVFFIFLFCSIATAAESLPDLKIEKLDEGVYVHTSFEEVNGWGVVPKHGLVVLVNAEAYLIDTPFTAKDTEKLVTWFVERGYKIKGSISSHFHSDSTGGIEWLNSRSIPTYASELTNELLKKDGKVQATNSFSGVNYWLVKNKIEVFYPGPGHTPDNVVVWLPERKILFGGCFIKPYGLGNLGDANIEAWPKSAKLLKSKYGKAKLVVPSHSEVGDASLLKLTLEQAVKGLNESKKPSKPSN
# assay.overview: biochemical
# Format: biochemical
# test.conditions: fluorescence assay with CCF2-FA substrate; read-out: IMP-1 IC50
quantity.kind: log10 IC50 (log10 of the value in µM)
Note the log scale: values are log10 of IC50 expressed in µM.

A selection of reference data follows.
compound: NS(=O)(=O)c1cccc(-c2cccc(CO)c2)c1-c1nnn[nH]1 [Example 119]
log10 IC50: -0.26
//
compound: NS(=O)(=O)c1c(C(F)(F)F)ccc(-c2ccc(C3CCN(C4CC5(CCNCC5)C4)CC3)cc2)c1-c1nnn[nH]1 [Example 797]
log10 IC50: -2.82
//
compound: NS(=O)(=O)c1c(C(F)(F)F)ccc(-c2ccc(C3CN(C4CC5(CCNCC5)C4)C3)cc2)c1-c1nnn[nH]1 [Example 805]
log10 IC50: -2.12
//
compound: CCn1c(N)nc2cc(-c3ccc(C(F)(F)F)c(S(N)(=O)=O)c3-c3nnn[nH]3)ccc21 [Example 752]
log10 IC50: -2.20
//
compound: NS(=O)(=O)c1cccc(-c2ccnn2Cc2ccccc2)c1-c1nn[nH]n1 [Example 95]
log10 IC50: -0.27
//
compound: NC1Cc2cccc(-c3ccc(C(F)(F)F)c(S(N)(=O)=O)c3-c3nnn[nH]3)c2C1 (stereo not shown) [Example 836]
log10 IC50: -0.87

**Query** Which log10 IC50 value is on record for NS(=O)(=O)c1cccc(COc2ccccc2)c1-c1nnn[nH]1 [Example 142] ?
**Result** -1.09

**Query** Further, for NS(=O)(=O)c1cccc(-c2ccc(N3CCCCC3)cc2)c1-c1nn[nH]n1 [Example 18] ?
**Result** -1.63

**Query** Further, for NS(=O)(=O)c1cccc(-c2cnc(NCCO)nc2)c1-c1nnn[nH]1 [Example 125] ?
**Result** -0.49

**Query** Further, for NS(=O)(=O)c1c(C(F)(F)F)ccc(C2CCC3(CCNCC3)CC2)c1-c1nnn[nH]1 [Example 833] ?
**Result** -2.37

**Query** Further, for NS(=O)(=O)c1cccc(C2CCCCC2)c1-c1nnn[nH]1 [Example 151] ?
**Result** -1.50

====

# test.target: VIM-1 (Pseudomonas aeruginosa (strain ATCC 15692 / DSM 22644 / CIP 104116 / JCM 14847 / LMG 12228 / 1C / PRS 101 / PAO1))
# assay.overview: Enzyme activity: determination of IC50, fluorescence assay with CCF2-FA substrate (VIM-1)
# Assay type: biochemical
# test.conditions: VIM-1 IC50, VIM-1 enzyme, CCF2-FA substrate
quantity.kind: IC50
# number then unit; no other words

compound: NC1CCC(N[C@H]2CC[C@H](c3ccc(C(F)(F)F)c(S(N)(=O)=O)c3-c3nnn[nH]3)CC2)CC1 (stereo partly shown) [Example 690]
result: 5.26 nM
//
compound: NS(=O)(=O)c1c(C(F)(F)F)ccc([C@H]2CC[C@H](NCC3CCCN3)CC2)c1-c1nnn[nH]1 (stereo partly shown)
result: 7.1 nM
//
compound: NS(=O)(=O)c1c(C[C@H]2CC[C@@H](N)CC2)ccc(-c2ccc(C3CNC3)cc2)c1-c1nnn[nH]1
result: 7.46 nM
//
compound: Nc1nc2c(-c3ccc(CC4CNC4)c(S(N)(=O)=O)c3-c3nn[nH]n3)cccc2s1
result: 7.69 nM
//
compound: NC1CC(N[C@H]2CC[C@H](c3ccc(C(F)(F)F)c(S(N)(=O)=O)c3-c3nnn[nH]3)CC2)C1 (stereo partly shown) [Example 694]
result: 2.46 nM

**Query** Which IC50 value is on record for `NS(=O)(=O)c1c(C(F)(F)F)ccc([C@H]2CC[C@@H](C3=NCCN3)CC2)c1-c1nnn[nH]1` ?
**Result** 0.937 nM

**Query** Further, for NS(=O)(=O)c1cccc(-c2ccc(NCC3CCN3)nc2)c1-c1nnn[nH]1 (stereo not shown) ?
**Result** 181 nM

====

Known IC50 of a selection of compounds
# test.target: VIM-1 (Pseudomonas aeruginosa (strain ATCC 15692 / DSM 22644 / CIP 104116 / JCM 14847 / LMG 12228 / 1C / PRS 101 / PAO1))
# assay.overview: Enzyme activity: determination of IC50, fluorescence assay with CCF2-FA substrate (VIM-1)
# Format: biochemical
# test.conditions: fluorescence assay with CCF2-FA substrate; read-out: VIM-1 IC50
Just the number in nM, nothing appended.

A selection of reference data follows.
compound: NC[C@H](N)C(=O)NC1CCC(c2ccc(C(F)(F)F)c(S(N)(=O)=O)c2-c2nnn[nH]2)CC1 (stereo partly shown)
IC50, nM: 2.9
//
compound: NS(=O)(=O)c1nccc(N2CCC3(CC2)NCNC3=O)c1-c1nnn[nH]1
IC50, nM: 6170
//
compound: C[N+]1(C)CCC(c2ccc(-c3cccc(S(N)(=O)=O)c3-c3nnn[nH]3)cc2)CC1.O=C([O-])C(F)(F)F [Example 33, 2,2,2-trifluoroacetate]
IC50, nM: 832

Please find the next compound below.
**Query** Which IC50 value is on record for NS(=O)(=O)c1cccc(-c2ccc(CC3OC(=O)NC3=O)cc2)c1-c1nn[nH]n1 (stereo not shown) ?
**Result** 244
